The reported numbers originate from PubChem BioAssay (NCI).

# Test system: UO-31 renal
# assay-text: NCI-60 one-dose screen, 48 h
# assay-setup: 10 µM unless noted
The panel holds about 83,000 compounds, 20% with a hit somewhere; the sample as a whole holds those more often. Activity calls are given as the source filed them. The calls were made as follows: active = growth percent below 10; inactive = the rest.
Pick one and only one: y for active, n for inactive

> print(dat)
                                   molecule  class.name
1  COc1cccc(-c2nc3sccn3c2-c2ccnc(NCCCNS(=O)(=O)c3ccc(C(F)(F)F)cc3)c2)c1           n
2  CCOC(=O)CN1/C(=N/c2sc3c(c2C(=O)OCC)CCN(C(=O)OCC)C3)SC(=O)/C1=C\C(=O)OC           n
3  O=c1[nH]c(Nc2ccc(S(=O)(=O)O)cc2)nc2nc(Nc3ccc(NC(=S)Nc4ccccc4)cc3)nc(-c3ccc(O)cc3O)c12           n
4                      Cc1cc(C(C)(C)C)ccc1S           n
5  CN(C[C@H]1Cc2c(cccc2N2CCN(Cc3ccccn3)CC2)CN1)[C@H]1CCCc2cccnc21           n
6  OB(O)c1cccc(-c2nc3ccc4[nH]ncc4c3c3c2CCCC3)c1F           n
7         Nc1cc2c(cc1C(=O)c1cccc(F)c1)OCCO2           n
8  CC(C)C(C(=O)NCCN1CCOCC1)N1C(=O)/C(=C/c2ccc(Br)cc2)SC1=S (centres undefined)           n

Look up the recorded call for COC(=O)C(Sc1ccc(Cl)cc1)C1SC(=S)N(Cc2ccccc2)C1=O (centres undefined) in this test. n

Look up the recorded call for O=C(Nc1ccncc1)C(=O)c1cn(S(=O)(=O)c2ccc(Br)cc2)c2ccccc12 in this test. n

Look up the recorded call for CC(C)(C)OC(=O)NCCc1ccc(N=C=S)cc1 in this test. n
